test system: E. coli TESEC Alr+ wild-type control; assay: growth (OD600 after 10 h); higher = more growth (less inhibition); conditions: compound 0.1 mM; raw OD600 reference: median of DMSO wells 0.49, cell-free background 0.052
Structures can show the parent of a compound that is named as a salt.
result-type: growth
Respond with the number and no other words.

Observe how each entry below is paired with its result.
[[record]]
molecule = "NC[C@@H]1O[C@H](O[C@H]2[C@@H](O)[C@H](O[C@@H]3[C@@H](O)[C@H](N)C[C@H](N)[C@H]3O[C@H]3O[C@H](CN)[C@@H](O)[C@H](O)[C@H]3N)O[C@@H]2CO)[C@H](N)[C@@H](O)[C@@H]1O [Neomycin sulfate]"
result_type = "growth"
observed = 0.453

[[record]]
molecule = "Cn1c(=O)c2nc[nH]c2n(C)c1=O [Theophylline monohydrate]"
result_type = "growth"
observed = 0.461

[[record]]
molecule = "CC(=O)O[C@H]1C(=O)[C@@]2(C)[C@H]([C@H](OC(=O)c3ccccc3)[C@]3(O)C[C@H](OC(=O)[C@H](O)[C@@H](NC(=O)c4ccccc4)c4ccccc4)C(C)=C1C3(C)C)[C@]1(OC(C)=O)CO[C@@H]1C[C@@H]2O"
result_type = "growth"
observed = 0.554


Look up and state reported growth for CC(C)[N+](C)(CCOC(=O)C1c2ccccc2Oc2ccccc21)C(C)C [Propantheline bromide]
0.644

Data provenance is the supplement of paper PMC9262897.
